Tested on: HEK-293T
Assay: Multiplex assay against HEK293T
Assay type: toxicity, cell-based
Settings: human, 24 h, 10 µM, compound concentration 10 uM, replicate 1
# note: exactly 50% is not below, so it is No; use Yes for Population Apoptotic (%) strictly under it

compound=O=c1cc(N2CCOCC2)oc2c(-c3cccc4c3sc3ccccc34)cccc12 class_assignment=No
compound=CN1CCN(Cc2ccc(Nc3ncc(Cl)c(Nc4ccccc4S(=O)(=O)N(C)C)n3)cc2)CC1 class_assignment=No
compound="Cc1cccc(CN2CCN(C(c3ccccc3)c3ccc(Cl)cc3)CC2)c1.Cl.Cl (stereo not given)" class_assignment=No
compound=O=c1[nH]c2ccccc2n1C1CCN(Cc2ccc(-c3[nH]c4cc5ncnc5cc4nc3-c3ccccc3)cc2)CC1 class_assignment=No
compound="CC1=C(C(=O)Nc2cc3cn[nH]c3cc2F)C(c2ccc(C(F)(F)F)cc2)CC(=O)N1 (stereo not given)" class_assignment=Yes

---

Tested on: HEK-293T
Assay: Multiplex assay against HEK293T
Type: toxicity, cell-based
Settings: human, 48 h, 1 µM, compound concentration 1 uM, replicate 1
Records here are stratified by Population Healthy Nuclei (%); strata: low = under 20%, intermediate = from 20% up to 40%, high = 40% and over

compound=CC(C)OC(=O)N1CCC(Oc2ncnc3c2cnn3-c2ccc(S(C)(=O)=O)cc2F)CC1 class_assignment=high
compound=CC(C)NC(=O)N1CC[C@H](NC2=Nc3cc(F)ccc3N(CC(F)F)c3ccc(Cl)cc32)C1 class_assignment=intermediate
compound="O=C(c1cc2c(cc1F)OC(c1ccc(F)cc1)(c1ccc(Cl)cc1Cl)O2)N1CCOCC1 (centres undefined)" class_assignment=high
compound=COc1ccc(-c2ccc3ncc4c(c3c2)n(-c2ccc(N3CCNCC3)c(C(F)(F)F)c2)c(=O)n4C)cn1.O=C(O)/C=C\C(=O)O class_assignment=low
compound=CC(C)(C)NC[C@H](O)COc1nsnc1N1CCOCC1 class_assignment=high
compound="COc1cc2ncn(-c3cc(OCc4ccccc4C(F)(F)F)c(C(N)=O)s3)c2cc1OC [GW843682X]" class_assignment=intermediate
compound="Cc1cccc(CN2CCN(C(c3ccccc3)c3ccc(Cl)cc3)CC2)c1.Cl.Cl (centres undefined)" class_assignment=intermediate
compound=COc1cc(Nc2nccc(-c3cnn4nc(OC)ccc34)n2)cc(C(F)(F)F)c1 class_assignment=intermediate
compound=CNC(=O)Nc1ccc(-c2nc(N3CC4CCC(C3)O4)c3cnn(C4CCC5(CC4)OCCO5)c3n2)cc1 class_assignment=low

---

Test system: Fibroblast
Test: Multiplex assay against human fibroblast
Type: toxicity, cell-based
Details: 12 h, 1 µM, compound concentration 1 uM, replicate 2
value.type: Population Tubulin-Different-Phenotype (%)

compound="COc1cc2ncn(-c3cc(OCc4ccccc4C(F)(F)F)c(C(N)=O)s3)c2cc1OC [GW843682X]" observed_result=20
compound="C=CC(=O)Nc1ccc2[nH]c(=O)n(C3CCN(Cc4ccc(-c5nc6cc[nH]c(=O)c6cc5-c5ccccc5)cc4)CC3)c2c1 [Borussertib]" observed_result=16
compound="CC(C)c1noc(N2CCC(COc3ccc(-c4ccc(S(C)(=O)=O)cc4)nc3)CC2)n1 [GSK-1292263]" observed_result=9
compound="CC(C)CC(=O)Nc1[nH]nc2c1CN(C(=O)C1CCN(C)CC1)C2(C)C [PHA-793887]" observed_result=22
compound="O=C(c1cc2c(cc1F)OC(c1ccc(F)cc1)(c1ccc(Cl)cc1Cl)O2)N1CCOCC1 (configuration not stated)" observed_result=15
compound=O=c1cc(N2CCOCC2)oc2c(-c3cccc4c3sc3ccccc34)cccc12 observed_result=14
compound=C=CC(=O)Nc1cccc(Oc2nc(Nc3ccc(N4CCN(C)CC4)cc3OC)ncc2Cl)c1 observed_result=64
compound="Cc1c[nH]c2nccc(Oc3c(F)cc(Nc4cc(Cl)nc(N)n4)cc3F)c12 [BAY-549]" observed_result=12
compound="CCCSc1nc(N[C@@H]2C[C@H]2c2ccc(F)c(F)c2)c2nnn([C@@H]3C[C@H](OCCO)[C@@H](O)[C@H]3O)c2n1 [TICAGRELOR]" observed_result=13
compound="Cc1cccc(CN2CCN(C(c3ccccc3)c3ccc(Cl)cc3)CC2)c1.Cl.Cl (configuration not stated)" observed_result=23
compound="C[C@]12CC[C@@H]3c4ccc(O)cc4CC[C@H]3[C@@H]1CC[C@@H]2O [ESTRADIOL]" observed_result=14
compound="Cc1ccc2c(c1)c1c(n2CCc2ccc(C)nc2)CCN(C)C1 [LATREPIRDINE]" observed_result=27
compound=Cc1nc(N2CC[C@H](O)C2)ncc1-c1cc(C(F)(F)F)cc2[nH]ncc12 observed_result=50
compound="CCc1nn(CCCN2CCN(c3cccc(Cl)c3)CC2)c(=O)n1CCOc1ccccc1.Cl [NEFAZODONE HYDROCHLORIDE]" observed_result=29
compound="CC1=C(C(=O)Nc2cc3cn[nH]c3cc2F)C(c2ccc(C(F)(F)F)cc2)CC(=O)N1 (configuration not stated)" observed_result=14
compound=CNC(=O)Nc1ccc(-c2nc(N3CC4CCC(C3)O4)c3cnn(C4CCC5(CC4)OCCO5)c3n2)cc1 observed_result=18
compound=C=CC(=O)Nc1cccc(Sc2nc(Nc3ccc(N4CCN(C)CC4)cc3)ncc2Cl)c1 observed_result=66

---

System: U2OS
Assay: Multiplex assay against U2OS
Type: toxicity, cell-based
Conditions: human, 24 h, 10 µM, compound concentration 10 uM, replicate 1
Listed next: entries and their corresponding Population Mitotic Cells (%).
value.type: Population Mitotic Cells (%)

compound=Cl.O=C(O)c1cc(-c2ccc(C3CCNCC3)cc2)c2ccc(-c3ccc(C(F)(F)F)cc3)cc2c1 observed_result=58
compound="CCc1nn(CCCN2CCN(c3cccc(Cl)c3)CC2)c(=O)n1CCOc1ccccc1.Cl [NEFAZODONE HYDROCHLORIDE]" observed_result=17
compound="COc1cc2ncn(-c3cc(OCc4ccccc4C(F)(F)F)c(C(N)=O)s3)c2cc1OC [GW843682X]" observed_result=48
compound="O=C(c1cc2c(cc1F)OC(c1ccc(F)cc1)(c1ccc(Cl)cc1Cl)O2)N1CCOCC1 (centres undefined)" observed_result=32

---

Test system: U2OS
Experiment: Multiplex assay against U2OS
Assay type: toxicity, cell-based
Conditions: human, 12 h, 10 µM, compound concentration 10 uM, replicate 1
value.type: Population Membrane Permeable-Phenotype (%)

structure=CC(C)NC(=O)N1CC[C@H](NC2=Nc3cc(F)ccc3N(CC(F)F)c3ccc(Cl)cc32)C1 assayed_target=U2OS observed_result=4
structure=O=c1cc(N2CCOCC2)oc2c(-c3cccc4c3sc3ccccc34)cccc12 assayed_target=U2OS observed_result=24
structure=CC(C)CC(=O)Nc1[nH]nc2c1CN(C(=O)C1CCN(C)CC1)C2(C)C assayed_target=U2OS observed_result=12
structure=C=CC(=O)Nc1ccc2[nH]c(=O)n(C3CCN(Cc4ccc(-c5nc6cc[nH]c(=O)c6cc5-c5ccccc5)cc4)CC3)c2c1 assayed_target=U2OS observed_result=24

---

Test system: HEK-293T
Test: Multiplex assay against HEK293T
Assay type: toxicity, cell-based
Details: human, 12 h, 10 µM, compound concentration 10 uM, replicate 1
value.type: Population Pyknosed Nuclei (%)

compound="Cc1cccc(CN2CCN(C(c3ccccc3)c3ccc(Cl)cc3)CC2)c1.Cl.Cl (stereo not given)" value_type="Population Pyknosed Nuclei (%)" observed_result=49
compound=C=CC(=O)Nc1cccc(Sc2nc(Nc3ccc(N4CCN(C)CC4)cc3)ncc2Cl)c1 value_type="Population Pyknosed Nuclei (%)" observed_result=35
compound=CC(C)c1noc(N2CCC(COc3ccc(-c4ccc(S(C)(=O)=O)cc4)nc3)CC2)n1 value_type="Population Pyknosed Nuclei (%)" observed_result=74
compound="CCc1nn(CCCN2CCN(c3cccc(Cl)c3)CC2)c(=O)n1CCOc1ccccc1.Cl [NEFAZODONE HYDROCHLORIDE]" value_type="Population Pyknosed Nuclei (%)" observed_result=53
compound=CC(C)Oc1ccccc1C(=O)Nc1ccccc1C(=O)Nc1cccc(S(=O)(=O)C(F)(F)F)c1 value_type="Population Pyknosed Nuclei (%)" observed_result=57

---

Tested on: HEK-293T
Assay: Multiplex assay against HEK293T
Format: toxicity, cell-based
Conditions: human, 48 h, 1 µM, compound concentration 1 uM, replicate 2
value.type: Population Normal (%)

compound="COc1cc2ncn(-c3cc(OCc4ccccc4C(F)(F)F)c(C(N)=O)s3)c2cc1OC [GW843682X]" observed_result=97%
compound=C[C@]12CC[C@@H]3c4ccc(O)cc4CC[C@H]3[C@@H]1CC[C@@H]2O observed_result=96%
compound=COc1ccccc1CN[C@H]1C2CCN(CC2)[C@H]1C(c1ccccc1)c1ccccc1 observed_result=97%
compound=CC(C)c1noc(N2CCC(COc3ccc(-c4ccc(S(C)(=O)=O)cc4)nc3)CC2)n1 observed_result=95%
compound=CCc1ccc(OCc2ccccc2C(=O)Nc2ccc3nc(C)cc(N)c3c2)cc1.Cl observed_result=88%
compound=CC(C)Oc1ccccc1C(=O)Nc1ccccc1C(=O)Nc1cccc(S(=O)(=O)C(F)(F)F)c1 observed_result=94%
compound="Cc1ccccc1C(c1ccccc1C)N1C2CCC1CC(O)(c1ccccc1)C2 (configuration not stated)" observed_result=98%
compound="O=C(c1cc2c(cc1F)OC(c1ccc(F)cc1)(c1ccc(Cl)cc1Cl)O2)N1CCOCC1 (configuration not stated)" observed_result=96%
compound=COc1ccc(-c2ccc3ncc4c(c3c2)n(-c2ccc(N3CCNCC3)c(C(F)(F)F)c2)c(=O)n4C)cn1.O=C(O)/C=C\C(=O)O observed_result=88%
compound=CNC(=O)Nc1ccc(-c2nc(N3CC4CCC(C3)O4)c3cnn(C4CCC5(CC4)OCCO5)c3n2)cc1 observed_result=88%
compound=CC(C)NC(=O)N1CC[C@H](NC2=Nc3cc(F)ccc3N(CC(F)F)c3ccc(Cl)cc32)C1 observed_result=96%
compound=Cc1c[nH]c2nccc(Oc3c(F)cc(Nc4cc(Cl)nc(N)n4)cc3F)c12 observed_result=97%
compound=CN1CCN(Cc2ccc(Nc3ncc(Cl)c(Nc4ccccc4S(=O)(=O)N(C)C)n3)cc2)CC1 observed_result=93%
compound=CC(C)(C)NC[C@H](O)COc1nsnc1N1CCOCC1 observed_result=97%
compound="CC1=C(C(=O)Nc2cc3cn[nH]c3cc2F)C(c2ccc(C(F)(F)F)cc2)CC(=O)N1 (configuration not stated)" observed_result=97%
compound="CCc1nn(CCCN2CCN(c3cccc(Cl)c3)CC2)c(=O)n1CCOc1ccccc1.Cl [NEFAZODONE HYDROCHLORIDE]" observed_result=98%
compound=Cc1ccc(C)c(Oc2ccncc2C(=O)N2CCN(C3CC3)c3ccccc32)c1 observed_result=97%
